// values below are reported NOAEL
- ASSAY_DETAILS: Therapeutic index (NOAEL/NOEL): paleness, lethargy, ataxia observation in Sprague-Dawley rats (Example 7)
- Type: in vivo
- CONDITION_PARAMETERS: in vivo, sc; S.C.; rat; read-out: Highest dose with no-observed adverse effect level without lethargy (NOAEL)
Where a SMILES comes first, the peptide text is derived from it. Bridges are numbered along the chain shown (N, C = ends). [ ]: non-standard residue; d: D form. Aad = N[C@@H](CCCC(=O)O)C(=O)O; Dap = NC[C@H](N)C(=O)O; Mpa = O=C(O)CCS

{"columns": ["MOLECULE", "RESULT"],
 "data": [
  ["NCCCC[C@H](NC(=O)[C@@H]1CCCN1C(=O)[C@@H]1CSSCCC(=O)N[C@@H](Cc2ccc(O)cc2)C(=O)N[C@@H](Cc2ccccc2)C(=O)N[C@@H](CCC(N)=O)C(=O)N[C@@H](CC(N)=O)C(=O)N1)C(=O)NCC(N)=O [SEQ ID NO. 32]", "0.01 mg/kg"],
  ["NCCCCCCCCCCCC(=O)NCCCC[C@H](NC(=O)[C@@H]1CCCN1C(=O)[C@@H]1CSSCCC(=O)N[C@@H](Cc2ccc(O)cc2)C(=O)N[C@@H](Cc2ccccc2)C(=O)N[C@@H](CCCC(N)=O)C(=O)N[C@@H](CC(N)=O)C(=O)N1)C(=O)NCC(N)=O [SEQ ID NO. 19]", "9.08 mg/kg"],
  ["NCCCC[C@@H](NC(=O)[C@@H]1CCCN1C(=O)[C@@H]1CSSCCC(=O)N[C@@H](Cc2ccc(O)cc2)C(=O)N[C@@H](Cc2ccccc2)C(=O)N[C@@H](CCCC(N)=O)C(=O)N[C@@H](CC(N)=O)C(=O)N1)C(=O)NCC(N)=O [SEQ ID NO. 18, Mpa-Tyr-Phe-Hgn-Asn-Cys-Pro-dLys-Gly-NH2]", "0.15 mg/kg"],
  ["NCCC[C@H](NC(=O)[C@@H]1CCCN1C(=O)[C@@H]1CSSCCC(=O)N[C@@H](Cc2ccc(O)cc2)C(=O)N[C@@H](Cc2ccccc2)C(=O)N[C@@H](CCCC(N)=O)C(=O)N[C@@H](CC(N)=O)C(=O)N1)C(=O)NCC(N)=O [SEQ ID NO. 30, Mpa-Tyr-Phe-Hgn-Asn-Cys-Pro-Orn-Gly-NH2]", "0.005 mg/kg"],
  ["CC(=O)NCCCC[C@H](NC(=O)[C@@H]1CCCN1C(=O)[C@@H]1CSSCCC(=O)N[C@@H](Cc2ccc(O)cc2)C(=O)N[C@@H](Cc2ccccc2)C(=O)N[C@@H](CCCC(N)=O)C(=O)N[C@@H](CC(N)=O)C(=O)N1)C(=O)NCC(N)=O [SEQ ID NO. 28]", "0.33 mg/kg"]
]}

Now consider the entry below.
q: Value lookup for NOAEL; key = NC[C@H](NC(=O)[C@@H]1CCCN1C(=O)[C@@H]1CSSCCC(=O)N[C@@H](Cc2ccc(O)cc2)C(=O)N[C@@H](Cc2ccccc2)C(=O)N[C@@H](CCCC(N)=O)C(=O)N[C@@H](CC(N)=O)C(=O)N1)C(=O)NCC(N)=O [SEQ ID NO. 17, Mpa-Tyr-Phe-Hgn-Asn-Cys-Pro-Dap-Gly-NH2] ([Mpa]YF[Aad](NH2)NCP[Dap]G-NH2; disulfide 1-6)
a: 0.478 mg/kg

Values compiled from patent US12410211B2.
